Entry source: ChEMBL document CHEMBL1157526

Tested on: Brain
Assay: Biodistribution in ddY mouse brain at 0.5 uCi, iv after 10 mins
Assay type: ADME, organism-based
Conditions: in vivo
measure_name: Drug uptake (% ID/g)

chemical_smiles | measurement_target | units_of_measure | number
CNc1ccc(-c2nc(-c3ccc([125I])cc3)no2)cc1 | Brain | % ID/g | 1.98
COc1ccc(-c2nc(-c3ccc([125I])cc3)no2)cc1 | Brain | % ID/g | 2.76
CN(C)c1ccc(-c2nc(-c3ccc([125I])cc3)no2)cc1 | Brain | % ID/g | 1.45
Nc1ccc(-c2nc(-c3ccc([125I])cc3)no2)cc1 | Brain | % ID/g | 2.48

----------
Catalogue of compounds with associated Drug uptake
System: Intestine
Assay: Biodistribution in ddY mouse intestine at 0.5 uCi, iv after 30 mins
Assay type: ADME, organism-based
Details: in vivo, 0.5 h

chemical_smiles | units_of_measure | Drug uptake
Nc1ccc(-c2nc(-c3ccc([125I])cc3)no2)cc1 | % ID/g | 5.84
COc1ccc(-c2nc(-c3ccc([125I])cc3)no2)cc1 | % ID/g | 6.62
CN(C)c1ccc(-c2nc(-c3ccc([125I])cc3)no2)cc1 | % ID/g | 4.12
CNc1ccc(-c2nc(-c3ccc([125I])cc3)no2)cc1 | % ID/g | 5.67

----------
Test system: Blood
Assay: Biodistribution in ddY mouse blood at 0.5 uCi, iv after 10 mins
Format: ADME, organism-based
Conditions: in vivo
Catalogue of compounds with associated Drug uptake
measure_name: Drug uptake

chemical_smiles | measure_name | result
CNc1ccc(-c2nc(-c3ccc([125I])cc3)no2)cc1 | Drug uptake | 1.84 % ID/g
Nc1ccc(-c2nc(-c3ccc([125I])cc3)no2)cc1 | Drug uptake | 2.32 % ID/g
CN(C)c1ccc(-c2nc(-c3ccc([125I])cc3)no2)cc1 | Drug uptake | 2.41 % ID/g
COc1ccc(-c2nc(-c3ccc([125I])cc3)no2)cc1 | Drug uptake | 1.63 % ID/g

----------
Tested on: Brain
Test: Biodistribution in ddY mouse brain at 0.5 uCi, iv after 60 mins
Assay type: ADME, organism-based
Conditions: in vivo, 1 h

chemical_smiles | units_of_measure | Drug uptake
CN(C)c1ccc(-c2nc(-c3ccc([125I])cc3)no2)cc1 | % ID/g | 2.32
CNc1ccc(-c2nc(-c3ccc([125I])cc3)no2)cc1 | % ID/g | 2.7
COc1ccc(-c2nc(-c3ccc([125I])cc3)no2)cc1 | % ID/g | 2.01
Nc1ccc(-c2nc(-c3ccc([125I])cc3)no2)cc1 | % ID/g | 3.29

----------
System: Liver
Test: Biodistribution in ddY mouse liver at 0.5 uCi, iv after 60 mins
Assay type: ADME, organism-based
Settings: in vivo, 1 h

chemical_smiles | measurement_target | Drug uptake, % ID/g
COc1ccc(-c2nc(-c3ccc([125I])cc3)no2)cc1 | Liver | 4.44
Nc1ccc(-c2nc(-c3ccc([125I])cc3)no2)cc1 | Liver | 12.33
CNc1ccc(-c2nc(-c3ccc([125I])cc3)no2)cc1 | Liver | 7.3
CN(C)c1ccc(-c2nc(-c3ccc([125I])cc3)no2)cc1 | Liver | 5.15
